- ASSAY: Vorinostat serum pharmacokinetics
- Type: in vivo, human
- CONDITION DETAILS: human, oral, 100 mg, Mean AUCinf (SD), Sequential schedule, 100 mg bid days 6–21 (n = 4), day 9 of cycle 1
ASSAY METRIC: AUC(0-inf) (ng·h/mL)
# unit: ng·h/mL | format: bare number

q: State the recorded AUC(0-inf) for this entry: O=C(CCCCCCC(=O)Nc1ccccc1)NO [vorinostat, suberoylanilide hydroxamic acid]
a: 352

----------
- ASSAY: Decitabine plasma pharmacokinetics
- Assay type: in vivo, human
- CONDITION DETAILS: human, intravenous, 20 mg/m^2/day, Mean Cmax (SD), Concurrent schedule: decitabine 20 mg/m^2/day (n = 6), Day 1, cycle 1
ASSAY METRIC: Cmax (ng/mL)
Lab book: enter the figure in ng/mL, no units written.

q: What does the data say about its Cmax? Entry: `Nc1ncn([C@H]2C[C@H](O)[C@@H](CO)O2)c(=O)n1`
a: 193
